Test system: Listeria monocytogenes 10403S
method.description: growth inhibition relative to ceftriaxone-alone control; higher = stronger potentiation of ceftriaxone growth inhibition
measurement.context: 10 µM; ceftriaxone 1 ug/ml; 12 h
Give growth inhibition for every item shown.
One number for each entry, in %.

Here are 4 molecules together with their reported answers.
Note to self: growth inhibition recorded for CCC(=O)Nc1ccc(C)c(-c2ccc(C(=O)NCC3CC3)cc2)c1 was -2.46

Memo: O=C1NC(=O)/C(=C\c2ccc3nccnc3c2)S1 , reported growth inhibition: 13.5

Memo: CS(=O)(=O)CCNCc1ccc(-c2ccc3ncnc(Nc4ccc(OCc5cccc(F)c5)c(Cl)c4)c3c2)o1 [Lapatinib Ditosylate (Tykerb)] , reported growth inhibition: 42

Per the records, this molecule ( CN(C)C(=O)O[C@H]1CN[C@H](C#Cc2cc3ncnc(Nc4ccc(OCc5cccc(F)c5)c(Cl)c4)c3s2)C1 ) has growth inhibition equal to -7.88

// each listed molecule needs a value for growth inhibition
1. CO[C@H]1C[C@@H]2CC[C@@H](C)[C@@](O)(O2)C(=O)C(=O)N2CCCC[C@H]2C(=O)O[C@H]([C@H](C)C[C@@H]2CC[C@@H](OP(C)(C)=O)[C@H](OC)C2)CC(=O)[C@H](C)/C=C(\C)[C@@H](O)[C@@H](OC)C(=O)[C@H](C)C[C@H](C)/C=C/C=C/C=C/1C [Deforolimus (Ridaforolimus)]
2. CC(C)(C)c1nc(-c2cccc(NS(=O)(=O)c3c(F)cccc3F)c2F)c(-c2ccnc(N)n2)s1
3. CN1CCN(C2CCN(C(=O)Nc3cc(Oc4ccc(NC(=O)C5(C(=O)Nc6ccc(F)cc6)CC5)c(F)c4)ccn3)CC2)CC1 [Golvatinib (E7050)]
4. COc1ccc2c(-c3ccnc(Nc4cccc(OC(F)(F)F)c4)n3)cnn2n1

Ans.
1: 39.2; 2: 56.2; 3: 48.7; 4: -7.53

====

Task for the reader: assign each of the following molecules its reported growth inhibition.
System: Listeria monocytogenes 10403S
method.description: growth inhibition relative to ceftriaxone-alone control; higher = stronger potentiation of ceftriaxone growth inhibition
measurement.context: 10 µM; ceftriaxone 1 ug/ml; 12 h
One number for each entry, in %.

For every item in the list below, what is its measured growth inhibition?
1. CC1=C(C(=O)Nc2ccc3[nH]ncc3c2)C(c2ccc3ccccc3c2)CC(=O)N1 (stereo not given)
2. O=C(NC[C@H](O)CO)c1ccncc1Nc1ccc(I)cc1F
3. COc1cc(C)c(NC(=O)CN(C)C)cc1Nc1nc(Nc2cccc(F)c2C(N)=O)c2cc[nH]c2n1
4. CCc1cnn2c(NCc3ccc[n+]([O-])c3)cc(N3CCCC[C@H]3CCO)nc12
5. FC(F)(F)c1cccc(Nc2nccc(-c3cnn4nc(-c5ccccc5)ccc34)n2)c1
6. Cc1ccc(NC(=O)c2cccc(N(C)C)c2)cc1NC(=O)c1ccc(O)cc1

Ans.
1. 11.5
2. 1.43
3. -5.99
4. -2.28
5. -7.85
6. 29.5

// for each molecule in input: emit growth inhibition
1. CNC(=O)c1ccccc1Nc1nc(Nc2ccc(N3CCOCC3)cc2OC)ncc1Cl
2. COc1cc2c(cc1Nc1nc(Nc3ccsc3C(N)=O)c3cc[nH]c3n1)N(C(=O)CN(C)C)CCC2(C)C
3. CC(=O)Nc1cccc(C#Cc2cncnc2Nc2ccc(OCc3cccc(F)c3)c(Cl)c2)c1
4. Fc1ccc(-c2ncn(C3CCNCC3)c2-c2ccnc(Oc3ccccc3)n2)cc1
5. Cc1nnc(-c2ccc(C)c(-c3ccc(C(=O)Nc4cccc(C#N)c4)cc3)c2)o1
6. COC(=O)Nc1nc2cc(Oc3ccc(NC(=O)Nc4cccc(C(=O)O)c4)cc3)ccc2[nH]1
7. CCn1c(-c2nonc2N)nc2cncc(C(=O)NCCNC)c21
8. COc1cccc(-n2ncc3c(N/N=C/c4ccc(F)cc4)ncnc32)c1

Ans.
-3.4
-4.89
-15
-4.1
6.6
7.27
-6.44
-3.41

Summary for this molecule, Cc1c(NC(=O)OC[C@@H]2COCCN2)cn2ncnc(Nc3ccc4c(cnn4Cc4cccc(F)c4)c3)c12 : growth inhibition is 44.1

====

Provide the reported growth inhibition of each item.
Tested on: Listeria monocytogenes 10403S
method.description: growth inhibition relative to ceftriaxone-alone control; higher = stronger potentiation of ceftriaxone growth inhibition
measurement.context: 10 µM; ceftriaxone 1 ug/ml; 12 h
Numbers only, in %.

The examples below pair each entry with its known result.
Entry CCc1nccc2c1nc(-c1nonc1N)n2CC — recorded growth inhibition = -8.48

Quick note, growth inhibition for CN(C)c1ccc2c(c1)/C(=C/Nc1ccc(S(N)(=O)=O)cc1)C(=O)N2 landed at 1.99

Noted for CN(c1ccc(NC(=O)NCCN2CCOCC2)cc1)c1ccnc(Nc2ccc(CS(C)(=O)=O)cc2)n1 : its growth inhibition reads -5.31

Value of measured growth inhibition for the entry CNC(=O)c1ccccc1Sc1ccc2c(/C=C/c3ccccn3)n[nH]c2c1 : -11.8

So for N#Cc1ccc(Oc2nccc(-c3c(-c4ccc(F)cc4)ncn3C3CCNCC3)n2)cc1 , the logged growth inhibition turned out to be -15.2

get_value(item= CNC(=O)c1nn(C)c2c1C(C)(C)Cc1cnc(Nc3ccc(N4CCN(C)CC4)cc3)nc1-2 , readout=growth inhibition) returns 20.7

Entry NC(=O)Nc1sc(-c2ccc(F)cc2)cc1C(N)=O , growth inhibition reported as 40.9

Per the records, this compound ( C[C@@H](Oc1cc(-n2cnc3ccc(OC[C@@H](O)CO)cc32)sc1C(N)=O)c1ccccc1Cl ) has growth inhibition equal to -3.67

Next compound, growth inhibition to be filled in.
Record summary for CN(c1ccc(NC(=O)Nc2c(Cl)cccc2Cl)cc1)c1ccnc(Nc2cccc(CS(C)(=O)=O)c2)n1 : reported growth inhibition = -2.91

====

Test system: Listeria monocytogenes 10403S
method.description: growth inhibition relative to ceftriaxone-alone control; higher = stronger potentiation of ceftriaxone growth inhibition
measurement.context: 10 µM; ceftriaxone 1 ug/ml; 12 h
readout.type: growth inhibition (%)
Give bare numbers, in %.

response.value for C[C@]1(O)C[C@@H](c2nc(-c3ccc4ccc(-c5ccccc5)nc4c3)c3c(N)nccn32)C1 (field: growth inhibition) = 56.8

// growth inhibition lookup, compound = c1cncc(CN2CCC(n3ncc4c(N5CCOCC5)nc(-c5ccc6[nH]ccc6c5)nc43)CC2)c1 , result: 37.1

Pending compound:
growth inhibition reading for O=C(O)c1ccc(Nc2ncc3c(n2)-c2ccc(Cl)cc2C(c2c(F)cccc2F)=NC3)cc1 : 91.3

====

Could you please report measured growth inhibition for the items listed next?
System: Listeria monocytogenes 10403S
method.description: growth inhibition relative to ceftriaxone-alone control; higher = stronger potentiation of ceftriaxone growth inhibition
measurement.context: 10 µM; ceftriaxone 1 ug/ml; 12 h
Answers are plain numbers, in %.

Summary line: NCc1ccc(-c2nc(-c3ccc(Cl)c(O)c3)c(-c3ccncc3)[nH]2)cc1 , Listeria monocytogenes 10403S, reported growth inhibition = -9.88

The measured growth inhibition that COc1cc2ncnc(Nc3ccc(F)c(Cl)c3)c2cc1NC(=O)/C=C/CN1CCCCC1 showed for Listeria monocytogenes 10403S is 60

Each compound below has a reported value. Please supply its growth inhibition.
1. CCc1cccc(CC)c1NC(=O)N1Cc2[nH]nc(NC(=O)c3ccc(N4CCN(C)CC4)cc3)c2C1
2. [O-][S+]1CCN(Cc2ccc(-c3ccc4ncnc(Nc5ccc(OCc6ccccc6)c(F)c5)c4c3)o2)CC1
3. NS(=O)(=O)c1cccc(-c2cc3ccncc3cc2OCc2ccccc2)c1
4. Cc1ccc(-c2cc3c(NC(=O)C4CC4)ncnc3o2)cc1

Ans.
1: 33.1; 2: 2.23; 3: 8.53; 4: -3.41

For every record below, what is its growth inhibition?
1. COc1ccc2c3n(c(=NC(=O)c4cccnc4)nc2c1OC)CCN3
2. COc1cc(Nc2ncc(F)c(Nc3ccc4c(n3)N(COP(=O)(O)O)C(=O)C(C)(C)O4)n2)cc(OC)c1OC
3. CS(=O)(=O)CCNCc1nc(-c2ccc3ncnc(Nc4ccc(F)c(Cl)c4)c3c2)cs1
4. O=C(NC1CCNCC1)c1n[nH]cc1NC(=O)c1c(Cl)cccc1Cl
5. CCN1CCC(CC(=O)Nc2n[nH]c3nnc(-c4cccc(F)c4F)cc23)CC1

Ans.
-0.968
10.1
1.67
13.4
7

Each of the following entries comes with a recorded value; kindly state growth inhibition for each.
1. O=C(NCCCNc1nc(Nc2cccc(NC(=O)N3CCCC3)c2)ncc1I)c1cccs1
2. Nc1nccc(-c2c(-c3ccc(F)cc3)ncn2CCCN2CCOCC2)n1
3. OCCCNc1nccc(-c2c(-c3ccc(F)cc3)nn3cc(C(F)(F)F)ccc23)n1
4. Nc1nc(-c2ccccn2)c(-c2ccc3ncccc3n2)s1
5. Oc1cccc(-c2nc(N3CCOCC3)c3oc4ncccc4c3n2)c1

Ans.
1: -19.4; 2: -1.02; 3: 15.6; 4: 0.104; 5: 22.4

====

Tested on: Listeria monocytogenes 10403S;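 also: End-point A600 read in BHI broth at 37 °C with 2% DMSO, inhibition computed as (1 − OD with compound plus ceftriaxone ÷ OD with ceftriaxone only) × 100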
method.description: growth inhibition relative to ceftriaxone-alone control; higher = stronger potentiation of ceftriaxone growth inhibition
measurement.context: 10 µM; ceftriaxone 1 ug/ml; 12 h
readout.type: growth inhibition
Dear colleague, please send the value followed by its unit.

Below, each entry is followed by its recorded growth inhibition result.
GET /value?item= N#Cc1c(NC(=O)c2cccc3ccccc23)sc2c1CCCC2 &field=growth inhibition returns -6.35%

According to the records, this compound CC(=O)NCc1cccc(C#Cc2cncnc2Nc2ccc(OCc3cccc(F)c3)c(Cl)c2)c1 displays growth inhibition of -1.26%

Input NC(=O)c1sc(-n2cnc3ccc(C(F)(F)F)cc32)cc1OCc1ccccc1Br . Output growth inhibition: -2.79%

// CCn1c(-c2nonc2N)nc2ccc(F)cc21 : growth inhibition value = -0.804%

growth inhibition reading for Cc1ccc2c(-c3ccnc(Nc4ccc5c(c4)OCCO5)n3)c(-c3ccc(C(F)(F)F)cc3)nn2n1 : -1.85%

List the reported growth inhibition of each compound below.
1. C[C@@H](Oc1cc(-n2cnc3ccc(OCC4CCN(C)CC4)cc32)sc1C(N)=O)c1ccccc1Cl
2. c1ccc2c(-c3cnn4cc(-c5ccc(N6CCNCC6)cc5)cnc34)ccnc2c1

Ans.
["-2.37%", "24.6%"]
